Hey, just so you know, these numbers are from patent US12624309B2.

- method: Acid-catalyzed hydrolysis of enol ethers in THF/1 M HCl, percent remaining by GC-FID
- Assay type: physicochemical
- measurement-parameters: THF/1M HCl (80:20 v/v), room temperature, 672 h
// boundary case: percent remaining, 672 h equal to 40% maps to condition not met; strictly smaller maps to condition met

COC(=O)C(C)(C)OC=C(C)c1ccc(C)cc1 :: condition not met
CC(OC=Cc1ccccc1)C(=O)OCCc1ccccc1 (racemic) [Compound 40, (±)-phenethyl 2-(styryloxy)propanoate] :: condition not met
COC(=O)C(C)(C)OC=C(C)c1ccccc1 :: condition not met
CC/C=C\CCOC=Cc1ccc(OC)cc1 [Compound 51, reference compound] :: condition met
CC/C=C\CCOC(=O)C(C)OC=Cc1ccccc1 (racemic) :: condition not met

Problem: percent remaining, 672 h under 40%? Item: C(=Cc1ccccc1)OCCc1ccccc1 [(2-phenethoxyvinyl)benzene, reference compound]
Solution: condition met

Problem: Lab note: confirm whether the reported percent remaining, 672 h for this molecule is below 40%, equality not counting. molecule: CCCCCC(CC)OC(=O)C(C)OC=Cc1ccccc1 (racemic) [Compound 41, (±)-octan-3-yl 2-(styryloxy)propanoate]
Solution: condition not met

Problem: Determine whether this molecule shows percent remaining, 672 h lower than 40% (ties excluded): CC(=COC(C)(C)CCCC(C)C)c1ccccc1 [reference compound]
Solution: condition met
